tgt: 5,10-methylenetetrahydrofolate reductase (MTHFR) (Homo sapiens)
Construct: HsMTHFR1–656 (phosphorylated, as purified)
Sequence (P42898 whole entry): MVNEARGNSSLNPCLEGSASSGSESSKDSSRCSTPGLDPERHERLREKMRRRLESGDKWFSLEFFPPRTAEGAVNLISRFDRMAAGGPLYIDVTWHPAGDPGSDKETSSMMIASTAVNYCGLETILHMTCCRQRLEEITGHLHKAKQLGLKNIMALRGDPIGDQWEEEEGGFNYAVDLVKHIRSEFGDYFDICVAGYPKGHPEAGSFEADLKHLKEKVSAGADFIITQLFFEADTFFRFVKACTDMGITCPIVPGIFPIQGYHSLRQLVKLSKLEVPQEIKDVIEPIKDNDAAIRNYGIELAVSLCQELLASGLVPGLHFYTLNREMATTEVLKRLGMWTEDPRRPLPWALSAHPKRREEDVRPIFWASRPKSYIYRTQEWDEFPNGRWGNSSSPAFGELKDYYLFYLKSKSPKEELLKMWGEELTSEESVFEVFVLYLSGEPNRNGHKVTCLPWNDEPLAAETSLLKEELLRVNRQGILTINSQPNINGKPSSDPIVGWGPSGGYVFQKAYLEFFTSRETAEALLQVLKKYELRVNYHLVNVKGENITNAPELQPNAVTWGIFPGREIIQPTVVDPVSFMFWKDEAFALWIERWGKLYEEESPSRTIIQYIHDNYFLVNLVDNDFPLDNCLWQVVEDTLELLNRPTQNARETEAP
procedureSummary: HPLC-based enzyme activity assay; also native MS, DSF and aSEC
Assay type: biochemical
conditionSet: read-out: Inhibition (μM) / SAM Ki (95% CI)

- compound: "C[S+](CC[C@H](N)C(=O)[O-])C[C@H]1O[C@@H](n2cnc3c(N)ncnc32)[C@H](O)[C@@H]1O (stereo partly shown)"
  readoutUnits: "µM"
  Ki: 2.7
